Each item that follows carries a reported DC50.
target: BRAF D594G (Homo sapiens, UniProt P15056, D594G); construct: Horizon Discovery (HCT-116 BRAF−/− cells); host or cells: HCT-116 BRAF−/− cells, clone 63, lentiviral transduction; assay: BRAF HiBiT degradation assay, C-terminal HiBiT-tagged BRAF D594G overexpressed in HCT-116 BRAF−/− cells (clone 63), Nano-Glo HiBiT Lytic assay; assay type: cell-based; conditions: BRAF D594G (Class 3), HCT-116 BRAF−/− cells; DC50 at 50% degradation
Sequence (P15056 whole entry D594G): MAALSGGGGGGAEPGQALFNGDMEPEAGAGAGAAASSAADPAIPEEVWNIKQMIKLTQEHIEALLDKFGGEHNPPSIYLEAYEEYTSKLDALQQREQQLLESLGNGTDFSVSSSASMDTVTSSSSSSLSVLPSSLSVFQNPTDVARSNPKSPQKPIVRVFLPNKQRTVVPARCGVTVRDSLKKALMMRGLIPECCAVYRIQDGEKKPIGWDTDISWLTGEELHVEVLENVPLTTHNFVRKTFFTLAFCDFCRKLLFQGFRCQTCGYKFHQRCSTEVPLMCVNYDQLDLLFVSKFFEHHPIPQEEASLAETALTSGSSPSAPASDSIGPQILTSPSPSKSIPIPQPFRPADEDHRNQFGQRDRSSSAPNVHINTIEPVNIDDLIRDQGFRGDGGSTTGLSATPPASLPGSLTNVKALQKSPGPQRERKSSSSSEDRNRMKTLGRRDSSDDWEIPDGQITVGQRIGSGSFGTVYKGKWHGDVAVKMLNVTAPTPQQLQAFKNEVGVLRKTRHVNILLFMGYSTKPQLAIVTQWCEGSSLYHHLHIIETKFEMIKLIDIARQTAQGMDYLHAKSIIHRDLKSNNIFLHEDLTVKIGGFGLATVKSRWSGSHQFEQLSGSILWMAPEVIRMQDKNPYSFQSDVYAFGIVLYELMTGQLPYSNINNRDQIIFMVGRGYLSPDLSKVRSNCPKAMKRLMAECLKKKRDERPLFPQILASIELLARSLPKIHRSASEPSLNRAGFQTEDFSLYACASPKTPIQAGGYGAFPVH

compound | result
CCN(C)S(=O)(=O)Nc1cc(F)cc(-c2cn(-c3ccc(N4CCN(CC5CCN(c6ccc([C@H]7CCC(=O)NC7=O)cc6)CC5)CC4)cc3)nc2-c2ccncc2)c1F [Compound 377] | 0.01 to 0.05 µM

Prompt: Record request: DC50 value, item CCCS(=O)(=O)Nc1cc(Cl)cc(-c2cn(-c3ccc(N4CCN(CC5CCN(c6ccc(C7CCC(=O)NC7=O)cn6)CC5)[C@@H](C)C4)cc3)nc2-c2ccncc2)c1F (mixture of isomers) [Compound 279]
Completion: < 0.01 µM

Prompt: Record request: DC50 value, item O=C1CC[C@H](c2ccc(N3CCC(CN4CCN(c5ccc(-n6cc(-c7cc(Cl)cc(NS(=O)(=O)N8CC[C@@H](F)C8)c7F)c(-c7ccncc7)n6)cc5)CC4)CC3)nc2)C(=O)N1 [Compound 264]
Completion: < 0.01 µM

* * *

molecular target: BRAF G466V (Homo sapiens, UniProt P15056, G466V); construct: Horizon Discovery (HCT-116 BRAF−/− cells); host or cells: HCT-116 BRAF−/− cells, clone 8, lentiviral transduction; experiment: BRAF HiBiT degradation assay, C-terminal HiBiT-tagged BRAF G466V overexpressed in HCT-116 BRAF−/− cells (clone 8), Nano-Glo HiBiT Lytic assay; type: cell-based; conditions: BRAF G466V; DC50 at 50%: fitted conc. at Y=50
Sequence (P15056 whole entry G466V): as the sequence (P15056 whole entry D594G) above, with G466V, G594D counted along it
Each item that follows carries a reported DC50.

Known DC50 results, listed for orientation:
compound | result
CCN(C)S(=O)(=O)Nc1cccc(-c2nc(C(C)(C)C)sc2-c2ccnc(Nc3ccc(N4CCN(C(=O)CN5CCc6cc(C7CCC(=O)NC7=O)ccc6C5)CC4)c(F)c3)n2)c1F (racemic) | < 10 nM
CCCS(=O)(=O)Nc1cccc(-c2nc(C(C)(C)C)sc2-c2ccnc(Nc3cccc(C4CCN(CC[C@@H]5CCN(c6ccc(C7CCC(=O)NC7=O)cn6)C5)CC4)c3)n2)c1F (mixture of isomers) | > 500 nM

Prompt: Record request: DC50 value, item CCN(C)S(=O)(=O)Nc1cccc(-c2nc(C(C)(C)C)sc2-c2ccnc(Nc3ccc(N4CCN(CC5CCN(c6ccc([C@H]7CCC(=O)NC7=O)cc6)CC5)CC4)cn3)n2)c1F
Completion: 50 to 500 nM

Prompt: Record request: DC50 value, item CCCS(=O)(=O)Nc1cccc(-c2nc(C(C)(C)C)sc2-c2ccnc(Nc3cccc(OC4CCN(C(=O)C5CCN(c6cc(C7CCC(=O)NC7=O)ccn6)CC5)CC4)c3)n2)c1F (racemic)
Completion: > 500 nM

Prompt: Record request: DC50 value, item CCCS(=O)(=O)Nc1cccc(-c2cn(-c3ccc(N4CCN(CC5CCN(c6ccc(C7CCC(=O)NC7=O)c(F)c6)CC5)CC4)cc3)nc2-c2ccncc2)c1F (racemic)
Completion: 10 to 50 nM
